src = patent US11034672B1

Target: UniProtKB P00533
Test: BaF3 cell proliferation assay, EGFR WT (Table A)
Assay type: cell-based
Conditions: potency code, 3 days, CellTiterGlo, read-out: EGFR WT (Activity for Inhibiting EGFR)
Recorded IC50, one value per entry.
Endpoint label: IC50

* C=CC(=O)Nc1cc2c(Nc3ccc(OCc4cnccn4)c(Cl)c3)ncnc2cc1OCCN1CCOCC1 [compound 176] | > 1 µM
* C=CC(=O)Nc1cc2c(Nc3ccc(OCc4ccccn4)cc3)ncnc2cc1OCCN1CCC(N(C)C)CC1 [compound 80] | 0.1 to 0.2 µM
* C=CC(=O)Nc1cc2c(Nc3ccc(OCc4ccccn4)cc3)ncnc2cc1OCCn1ccnc1 [compound 9] | 0.5 to 1 µM
* CC#CC(=O)Nc1cc2c(Nc3ccc(OCc4ccccn4)c(Cl)c3)ncnc2cc1C#CC1[C@H]2CN(C)C[C@@H]12 (stereo partly drawn) [compound 107] | 0.2 to 0.3 µM
* C=CC(=O)Nc1cc2c(Nc3ccc(OCc4cccc(F)c4)c(Cl)c3)ncnc2cc1N(C)CCN(C)C [compound 1] | > 1 µM
* CC#CC(=O)Nc1cc2c(Nc3ccc(OCc4cnccn4)c(Cl)c3)ncnc2cc1OCCCN1CCOCC1 [compound 170] | 0.2 to 0.3 µM
* C=CC(=O)Nc1cc2c(Nc3ccc(OCc4ccccn4)c(Cl)c3)c(C#N)cnc2cc1OCCN1CCOCC1 [compound 11] | 0.3 to 0.5 µM
* C=CC(=O)Nc1cc2c(Nc3ccc(OCc4ccccn4)c(Cl)c3)ncnc2cc1O[C@H]1CCN(C)C1 [compound 18] | 0.3 to 0.5 µM
* C=CC(=O)Nc1cc2c(Nc3ccc(OCc4ccccn4)c(Cl)c3)ncnc2cc1OCCN(C)C [compound 19] | 0.2 to 0.3 µM
* C=CC(=O)Nc1cc2c(Nc3ccc(OCc4ccccn4)c(Cl)c3)ncnc2cc1N1CC2(CCN2C)C1 [compound 50] | > 1 µM
* C=CC(=O)Nc1cc2c(Nc3ccc(OCc4cnccn4)c(Cl)c3)ncnc2cc1OCCCN1CCOCC1 [compound 169] | > 1 µM
* C=CC(=O)Nc1cc2c(Nc3ccc(OCc4cnccn4)c(Cl)c3)ncnc2cc1OCCCN1CC(OC)C1 [compound 179] | 0.5 to 1 µM
* C=CC(=O)Nc1cc2c(Nc3ccc(OCc4ccccn4)cc3F)ncnc2cc1OC1CCN(C)C1 (stereo not drawn) [compound 59] | 0.3 to 0.5 µM
* C=CC(=O)Nc1cc2c(Nc3ccc(OCc4cccc(F)c4)c(Cl)c3)ncnc2cc1OCCN1CC2CCC(C1)O2 [compound 139] | 0.5 to 1 µM
* C=CC(=O)Nc1cc2c(Nc3ccc(OCc4ccccn4)c(Cl)c3)ncnc2cc1C#CC(C)(C)N(C)C [compound 66] | 0.5 to 1 µM

---

Molecular target: HER2 S310F (Homo sapiens, UniProt P04626, S310F)
Construct: expressed in transfected cells; host or cells: BaF3 (murine pro-B)
Sequence (P04626 23-1255 S310F): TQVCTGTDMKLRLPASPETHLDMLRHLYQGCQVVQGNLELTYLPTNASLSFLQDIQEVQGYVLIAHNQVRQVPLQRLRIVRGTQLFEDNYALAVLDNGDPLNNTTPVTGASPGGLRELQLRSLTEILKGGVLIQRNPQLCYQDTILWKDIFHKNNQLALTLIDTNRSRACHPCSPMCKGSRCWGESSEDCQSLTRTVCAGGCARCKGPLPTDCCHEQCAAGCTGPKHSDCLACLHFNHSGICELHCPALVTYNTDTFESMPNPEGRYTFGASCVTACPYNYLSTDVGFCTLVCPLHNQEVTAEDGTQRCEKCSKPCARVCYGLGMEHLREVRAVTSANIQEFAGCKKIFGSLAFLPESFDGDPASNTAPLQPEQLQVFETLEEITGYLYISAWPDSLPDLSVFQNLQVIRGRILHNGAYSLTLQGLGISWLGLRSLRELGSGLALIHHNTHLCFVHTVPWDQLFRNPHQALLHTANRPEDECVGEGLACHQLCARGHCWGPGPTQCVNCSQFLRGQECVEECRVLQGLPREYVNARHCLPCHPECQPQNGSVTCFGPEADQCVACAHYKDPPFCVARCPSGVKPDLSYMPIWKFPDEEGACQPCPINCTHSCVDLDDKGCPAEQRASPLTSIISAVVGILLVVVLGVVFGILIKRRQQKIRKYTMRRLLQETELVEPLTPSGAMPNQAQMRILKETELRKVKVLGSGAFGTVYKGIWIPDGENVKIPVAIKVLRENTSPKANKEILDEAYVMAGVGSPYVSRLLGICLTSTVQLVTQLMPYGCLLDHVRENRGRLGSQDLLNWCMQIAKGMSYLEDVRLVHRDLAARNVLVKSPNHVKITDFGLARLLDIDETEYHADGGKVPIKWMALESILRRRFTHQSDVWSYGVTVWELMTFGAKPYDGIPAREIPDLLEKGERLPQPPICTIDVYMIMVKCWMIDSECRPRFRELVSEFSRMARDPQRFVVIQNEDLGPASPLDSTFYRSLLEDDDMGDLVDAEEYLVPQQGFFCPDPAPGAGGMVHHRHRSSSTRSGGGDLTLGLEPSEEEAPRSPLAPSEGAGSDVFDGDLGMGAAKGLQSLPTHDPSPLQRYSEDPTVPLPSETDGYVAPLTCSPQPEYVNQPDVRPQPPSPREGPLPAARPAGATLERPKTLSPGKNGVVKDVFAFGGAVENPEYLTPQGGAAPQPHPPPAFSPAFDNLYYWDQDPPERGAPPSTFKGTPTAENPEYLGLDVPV
Experiment: BaF3 cell proliferation assay, HER2 S310F (Table B)
Format: cell-based
Settings: potency code, 3 days, CellTiterGlo, read-out: HER2 S310F (Activity for Inhibiting HER2)
Recorded IC50, one value per entry.
Endpoint label: IC50

* C=CC(=O)Nc1cc2c(Nc3ccc(OCc4ccccn4)c(Cl)c3)ncnc2cc1OC1CCNC1 (stereo not drawn) | 100 to 200 nM
* C=CC(=O)Nc1cc2c(Nc3ccc(OCc4cnccn4)c(Cl)c3)ncnc2cc1OCCCN1CCOCC1 | 10 to 20 nM
* C=CC(=O)Nc1cc2c(Nc3ccc(OCc4cccc(C(F)(F)F)n4)c(Cl)c3)ncnc2cc1OCCN1CCOCC1 | 100 to 200 nM
* C=CC(=O)Nc1cc2c(Nc3ccc(OCc4ccccn4)c(Cl)c3)ncnc2cc1OCC1CN(C)C1 | 30 to 50 nM
* C=CC(=O)Nc1cc2c(Nc3ccc(OCc4ccccn4)c(Cl)c3)ncnc2cc1OCCN1CC(F)C1 | 10 to 20 nM
* C=CC(=O)Nc1cc2c(Nc3ccc(OCc4cccc(OC(F)(F)F)n4)c(Cl)c3)ncnc2cc1OCCN1CCOCC1 | 200 to 300 nM
* C=CC(=O)Nc1cc2c(Nc3ccc(OCc4ccccn4)c(Cl)c3)ncnc2cc1OCCCN1CCN(C)CC1 | 10 to 20 nM
* C=CC(=O)Nc1cc2c(Nc3ccc(OCc4cccnn4)c(Cl)c3)ncnc2cc1OCCN1CCOCC1 | 50 to 100 nM
* CC#CC(=O)Nc1cc2c(Nc3ccc(OCc4ccccn4)c(Cl)c3)ncnc2cc1C#CC(C)(C)N1CCN(C)CC1 | 10 to 20 nM
* C=CC(=O)Nc1cc2c(Nc3ccc(OCc4ccccn4)c(Cl)c3)ncnc2cc1OCCC1(N(C)C)CC1 | 20 to 30 nM
* C=CC(=O)Nc1cc2c(Nc3ccc(OCc4cccc(C)n4)c(Cl)c3)ncnc2cc1OCCCN1CCOCC1 | 30 to 50 nM
* C=CC(=O)Nc1cc2c(Nc3ccc(OCc4ccccn4)cc3)ncnc2cc1OCCn1ccnc1 | 100 to 200 nM
* C=CC(=O)Nc1cc2c(Nc3ccc(OCc4ccccn4)c(Cl)c3)ncnc2cc1N1CC2CCN(C)C2C1 (stereo not drawn) | 100 to 200 nM
* C=CC(=O)Nc1cc2c(Nc3ccc(Oc4ccc(C)nc4)c(C)c3)ncnc2cc1C#C[C@@H]1[C@H]2CN(C)C[C@@H]12 | 30 to 50 nM
* C=CC(=O)Nc1cc2c(Nc3ccc(OCc4ccccn4)c(Cl)c3)ncnc2cc1C#CC1CC2(C1)CN(C)C2 | 30 to 50 nM

---

Biological target: EGFR-Exon 20 insertion SVD (EGFR-SVD) (Homo sapiens, UniProt P00533, DUP768-770)
Sequence (P00533 with tags, fused parts or gaps DUP768-770): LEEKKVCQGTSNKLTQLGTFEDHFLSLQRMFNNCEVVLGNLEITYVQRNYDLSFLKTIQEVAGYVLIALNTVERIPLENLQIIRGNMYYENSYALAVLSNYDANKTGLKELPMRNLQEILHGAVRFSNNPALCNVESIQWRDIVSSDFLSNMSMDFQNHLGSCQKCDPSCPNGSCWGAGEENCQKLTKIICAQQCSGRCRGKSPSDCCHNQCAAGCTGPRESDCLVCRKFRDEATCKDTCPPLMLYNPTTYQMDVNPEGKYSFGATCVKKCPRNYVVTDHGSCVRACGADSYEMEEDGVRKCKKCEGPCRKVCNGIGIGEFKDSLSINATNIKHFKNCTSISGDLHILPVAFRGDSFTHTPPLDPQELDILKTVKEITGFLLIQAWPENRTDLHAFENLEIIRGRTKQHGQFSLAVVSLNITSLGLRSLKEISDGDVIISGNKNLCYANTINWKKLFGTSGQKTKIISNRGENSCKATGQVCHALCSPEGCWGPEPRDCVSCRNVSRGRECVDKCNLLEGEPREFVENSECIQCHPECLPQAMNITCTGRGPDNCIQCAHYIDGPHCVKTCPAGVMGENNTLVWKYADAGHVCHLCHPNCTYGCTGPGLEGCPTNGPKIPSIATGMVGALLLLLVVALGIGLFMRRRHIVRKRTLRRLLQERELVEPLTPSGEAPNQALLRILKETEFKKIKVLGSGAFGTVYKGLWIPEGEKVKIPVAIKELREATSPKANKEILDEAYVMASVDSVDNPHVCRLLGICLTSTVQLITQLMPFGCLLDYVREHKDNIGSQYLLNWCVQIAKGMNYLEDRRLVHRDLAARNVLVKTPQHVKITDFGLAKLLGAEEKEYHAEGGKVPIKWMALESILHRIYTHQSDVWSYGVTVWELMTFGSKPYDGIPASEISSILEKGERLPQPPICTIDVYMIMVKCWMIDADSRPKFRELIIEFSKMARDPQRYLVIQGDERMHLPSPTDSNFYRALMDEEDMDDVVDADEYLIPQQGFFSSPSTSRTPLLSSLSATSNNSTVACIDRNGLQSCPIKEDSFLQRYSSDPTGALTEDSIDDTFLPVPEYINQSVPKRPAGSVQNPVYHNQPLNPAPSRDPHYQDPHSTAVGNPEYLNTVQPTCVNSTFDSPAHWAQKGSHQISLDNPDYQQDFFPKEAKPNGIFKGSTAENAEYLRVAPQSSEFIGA
Experiment: BaF3 panel Cell Titer Glo proliferation, EGFR-SVD (Example 3)
Conditions: BaF3 transformant, 72 hours, FIG. 21
Endpoint label: IC50

• C=CC(=O)Nc1cc2c(Nc3cc(Cl)c(OCc4cccc(F)c4)cc3F)ncnc2cc1OCCN1CCOCC1 [compound 6] = < 100 nM

---

Recorded IC50, one value per entry.
Biological target: HER2 YVMA (Homo sapiens, UniProt P04626, INS775YVMA)
Construct: expressed in transfected cells; host or cells: BaF3 (murine pro-B)
Sequence (P04626 with tags, fused parts or gaps INS775YVMA): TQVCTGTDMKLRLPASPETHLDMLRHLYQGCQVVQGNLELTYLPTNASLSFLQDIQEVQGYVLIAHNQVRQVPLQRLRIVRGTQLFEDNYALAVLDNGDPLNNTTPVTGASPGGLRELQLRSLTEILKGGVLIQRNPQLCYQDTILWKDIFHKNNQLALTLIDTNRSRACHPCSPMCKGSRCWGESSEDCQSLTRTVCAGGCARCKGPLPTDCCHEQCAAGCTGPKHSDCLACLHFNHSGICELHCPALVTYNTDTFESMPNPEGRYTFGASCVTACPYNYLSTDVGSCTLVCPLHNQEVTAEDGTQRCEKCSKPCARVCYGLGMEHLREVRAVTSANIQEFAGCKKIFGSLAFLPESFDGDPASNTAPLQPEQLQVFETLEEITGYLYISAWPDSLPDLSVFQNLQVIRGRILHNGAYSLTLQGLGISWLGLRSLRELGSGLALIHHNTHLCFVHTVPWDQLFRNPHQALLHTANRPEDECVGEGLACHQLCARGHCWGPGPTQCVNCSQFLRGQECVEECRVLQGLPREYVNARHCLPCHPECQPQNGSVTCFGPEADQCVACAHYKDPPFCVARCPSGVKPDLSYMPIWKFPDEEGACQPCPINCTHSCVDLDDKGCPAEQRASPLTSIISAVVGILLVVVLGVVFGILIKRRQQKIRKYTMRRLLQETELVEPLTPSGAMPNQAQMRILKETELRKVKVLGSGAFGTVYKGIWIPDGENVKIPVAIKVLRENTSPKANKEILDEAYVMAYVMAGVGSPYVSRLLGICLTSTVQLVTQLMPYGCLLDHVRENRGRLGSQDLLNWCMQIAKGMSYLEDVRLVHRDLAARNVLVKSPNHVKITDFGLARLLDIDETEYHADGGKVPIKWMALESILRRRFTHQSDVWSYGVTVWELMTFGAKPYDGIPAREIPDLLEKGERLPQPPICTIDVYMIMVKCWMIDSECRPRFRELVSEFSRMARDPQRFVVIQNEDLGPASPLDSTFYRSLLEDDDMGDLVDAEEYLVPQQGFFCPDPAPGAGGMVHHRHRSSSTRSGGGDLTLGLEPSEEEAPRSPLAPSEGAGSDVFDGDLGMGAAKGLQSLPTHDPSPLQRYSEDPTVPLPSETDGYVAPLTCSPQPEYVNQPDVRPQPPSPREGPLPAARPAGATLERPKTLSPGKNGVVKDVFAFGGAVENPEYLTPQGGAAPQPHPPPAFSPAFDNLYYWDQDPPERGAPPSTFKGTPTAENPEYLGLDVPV
Experiment: BaF3 cell proliferation assay, HER2 YVMA (Table B)
Type: cell-based
Settings: potency code, 3 days, CellTiterGlo, read-out: HER2 YVMA (Activity for Inhibiting HER2)
Endpoint label: IC50

• C=CC(=O)Nc1cc2c(Nc3ccc(OCc4ccccn4)c(Cl)c3)ncnc2cc1N1CC2CN(C)CC2C1 (centres unmarked) = 500 to 1000 nM
• C=CC(=O)Nc1cc2c(Nc3ccc(OCc4ccccn4)c(Cl)c3)ncnc2cc1OCCN1CCC(O)C1 (centres unmarked) = 100 to 200 nM
• C=CC(=O)Nc1cc2c(Nc3cc(Cl)c(OCc4cccc(F)c4)cc3F)ncnc2cc1OCCN1CC2CCC(C1)O2 = 200 to 300 nM
• C=CC(=O)Nc1cc2c(Nc3ccc(OCc4ccccn4)c(Cl)c3)ncnc2cc1OCCN1CC2CN(C)CC2C1 (centres unmarked) = 100 to 200 nM
• C=CC(=O)Nc1cc2c(Nc3ccc(OCc4cccnn4)c(Cl)c3)ncnc2cc1OCCN1CC(OC)C1 = 300 to 500 nM
• C=CC(=O)Nc1cc2c(Nc3ccc(OCc4ccccn4)c(Cl)c3)ncnc2cc1C#CC(C)(C)NC = 100 to 200 nM
• CC#CC(=O)Nc1cc2c(Nc3ccc(OCc4ccccn4)c(Cl)c3)ncnc2cc1OC1CCN(C)C1 (centres unmarked) = 50 to 100 nM
• C=CC(=O)Nc1cc2c(Nc3ccc(OCc4cccc(C)n4)c(Cl)c3)ncnc2cc1OCCN1CCN(C)CC1 = 300 to 500 nM
• C=CC(=O)Nc1cc2c(Nc3ccc(OCc4ccccn4)c(Cl)c3)ncnc2cc1C#CC12CCN(CC1)CC2 = 50 to 100 nM
• C=CC(=O)Nc1cc2c(Nc3ccc(OCc4ccccn4)c(Cl)c3)ncnc2cc1OCCCN1CC(OC)C1 = 20 to 30 nM
• C=CC(=O)Nc1cc2c(Nc3ccc(OCc4ccccn4)c(Cl)c3)ncnc2cc1OCCCN1CCN(C)CC1 = 20 to 30 nM
• C=CC(=O)Nc1cc2c(Nc3ccc(Oc4ccccc4)c(Cl)c3)ncnc2cc1O[C@@H]1CCN(C)C1 = 200 to 300 nM
• CC#CC(=O)Nc1cc2c(Nc3cc(Cl)c(OCc4cccc(F)c4)cc3F)ncnc2cc1O[C@@H]1CCN(C)C1 = 100 to 200 nM
• C=CC(=O)Nc1cc2c(Nc3ccc(OCc4ccccn4)c(Cl)c3)ncnc2cc1OCCN1CC2(CN(C)C2)C1 = 100 to 200 nM
• CC#CC(=O)Nc1cc2c(Nc3ccc(OCc4ccccn4)c(Cl)c3)ncnc2cc1C#CC1[C@H]2CN(C)C[C@@H]12 (some centres unmarked) = 30 to 50 nM
• C=CC(=O)Nc1cc2c(Nc3ccc(OCc4cnccn4)c(Cl)c3)ncnc2cc1OCCN1CC(OC)C1 = 100 to 200 nM
• C=CC(=O)Nc1cc2c(Nc3ccc(OCc4ccccn4)c(Cl)c3)ncnc2cc1OCCN1CCS(=O)(=O)CC1 = > 1000 nM
• C=CC(=O)Nc1cc2c(Nc3ccc(OCc4ccccn4)cc3)ncnc2cc1OCCN1CCC(N(C)C)CC1 = 500 to 1000 nM
• C=CC(=O)Nc1cc2c(Nc3ccc(OCc4ccccn4)c(Cl)c3)ncnc2cc1OCCN1CCC(OC)CC1 = 100 to 200 nM
• C=CC(=O)Nc1cc2c(Nc3ccc(OCc4cccc(F)c4)c(Cl)c3)ncnc2cc1OCCN1CCN(C)CC1 = 300 to 500 nM
• C=CC(=O)Nc1cc2c(Nc3ccc(OCc4cnccn4)c(Cl)c3)ncnc2cc1OCCN1CC2CCC(C1)O2 = 100 to 200 nM
• CC#CC(=O)Nc1cc2c(Nc3cc(Cl)c(OCc4cccc(F)c4)cc3F)ncnc2cc1OCCN1CCN(C)CC1 = 50 to 100 nM
• C=CC(=O)Nc1cc2c(Nc3ccc(OCc4cnccn4)c(Cl)c3)ncnc2cc1OCCN1CCN(C)CC1 = 100 to 200 nM
• C=CC(=O)Nc1cc2c(Nc3ccc(OCc4ccccn4)c(Cl)c3)ncnc2cc1N1CCC(N(C)C)C1 (centres unmarked) = > 1000 nM
• C=CC(=O)Nc1cc2c(Nc3ccc(OCc4ccccn4)c(Cl)c3)ncnc2cc1OCCN1CC2(COC2)C1 = 50 to 100 nM
• C=CC(=O)Nc1cc2c(Nc3ccc(OCc4cccc(C)n4)c(Cl)c3)ncnc2cc1OCCCN1CCOCC1 = 100 to 200 nM
• C=CC(=O)Nc1cc2c(Nc3ccc(OCc4cccnn4)c(Cl)c3)ncnc2cc1OCCCN1CCOCC1 = 50 to 100 nM
• C=CC(=O)Nc1cc2c(Nc3ccc(OCc4ccccn4)c(Cl)c3)ncnc2cc1C#C[C@@H]1[C@H]2CN(C)C[C@@H]12 = 30 to 50 nM
• C=CC(=O)Nc1cc2c(Nc3ccc(OCc4ccccn4)c(Cl)c3)ncnc2cc1OCCN(C)CC = 50 to 100 nM
